Each entry below carries its reported IC50.
target: VEGFR3 cytoplasmic domain (Homo sapiens); construct: VEGFR3 cytoplasmic domain (amino acids 798-1298) was purchased as N-terminal GST-fusion protein; GST (N); purchased; assay: VEGFR3 biochemical assay (AlphaScreen); settings: GST-VEGFR3 cytoplasmic domain, 500 μM ATP (modified form: His-fusion, 1 μM ATP)
Sequence (P35916 798-1298 isoform P35916-1): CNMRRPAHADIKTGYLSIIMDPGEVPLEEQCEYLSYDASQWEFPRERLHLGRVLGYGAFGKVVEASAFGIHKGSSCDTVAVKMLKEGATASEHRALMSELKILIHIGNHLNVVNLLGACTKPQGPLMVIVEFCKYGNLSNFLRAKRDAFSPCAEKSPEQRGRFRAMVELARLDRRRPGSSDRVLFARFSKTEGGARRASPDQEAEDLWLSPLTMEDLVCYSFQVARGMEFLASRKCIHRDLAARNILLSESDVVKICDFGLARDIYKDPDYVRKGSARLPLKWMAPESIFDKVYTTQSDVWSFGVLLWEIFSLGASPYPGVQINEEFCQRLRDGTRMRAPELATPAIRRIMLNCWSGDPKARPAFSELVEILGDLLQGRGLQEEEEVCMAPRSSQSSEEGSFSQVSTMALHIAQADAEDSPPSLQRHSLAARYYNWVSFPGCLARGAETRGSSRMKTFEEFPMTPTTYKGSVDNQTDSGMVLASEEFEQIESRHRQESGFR

compound | IC50
CN1CCC(c2ccc(Nc3ncc(C(F)(F)F)c(CCc4ccc(F)cc4CC(N)=O)n3)cc2)CC1 [Compound 10] | 76 nM
NC(=O)Cc1ccccc1CCc1nc(Nc2ccc(C(=O)N3CCNCC3)cc2)ncc1C(F)(F)F [Compound 6] | 23 nM
Cc1cnc(Nc2ccc(OC3CCNCC3)cc2)nc1CCc1ccccc1CC(N)=O [Compound 26] | 24 nM
CC(N)c1cccc(Nc2ncc(Cl)c(CCc3ccccc3CC(N)=O)n2)c1 (stereo not drawn) [Compound 38] | 76 nM
NC(=O)Cc1ccccc1CCc1nc(Nc2ccc(C3CCNCC3)c(F)c2)ncc1C(F)(F)F [Compound 7] | 40 nM
CN1CCC(n2cc(Nc3ncc(C(F)(F)F)c(CCc4ccccc4CC(N)=O)n3)cn2)CC1 [Compound 36] | 50 nM
NC(=O)Cc1ccccc1CCc1nc(Nc2ccc(C3CNC3)cc2)ncc1C(F)(F)F [Compound 20] | 37 nM
Cc1cnc(Nc2cnn(C3CNC3)c2)nc1CCc1ccccc1CC(N)=O [Compound 30] | 9 nM
NC(=O)Cc1ccccc1CCc1nc(Nc2ccc(C3CCNCC3)nc2)ncc1C(F)(F)F [Compound 13] | 67 nM
Cc1cnc(Nc2ccc(C3(N)COC3)cc2)nc1CCc1ccccc1CC(N)=O [Compound 31] | 23 nM
COC(=O)NC1(c2ccc(Nc3ncc(C)c(CCc4ccccc4CC(N)=O)n3)cc2)CCC1 [Compound 29] | 17 nM
Cc1cnc(Nc2ccc(C(C)N)cc2)nc1CCc1ccccc1CC(N)=O (stereo not drawn) [Compound 34] | 71 nM
NC(=O)Cc1ccccc1CCc1ccnc(Nc2ccc(N3CCNCC3)cc2)n1 [Compound 1] | 161 nM
CN1CCC(c2ccc(Nc3ncc(C(F)(F)F)c(CCc4cc(C(F)(F)F)ccc4CC(N)=O)n3)cc2)CC1 [Compound 17] | 67 nM
CN1CCC(c2ccc(Nc3ncc(C(F)(F)F)c(CCc4ccccc4CC(N)=O)n3)cn2)CC1 [Compound 14] | 81 nM
NC(=O)Cc1cccc(F)c1CCc1nc(Nc2ccc(C3CCNCC3)cc2)ncc1C(F)(F)F [Compound 41] | 26 nM
Cc1cc(Nc2ncc(C(F)(F)F)c(CCc3ccccc3CC(N)=O)n2)ccc1C1CCN(C)CC1 [Compound 12] | 20 nM
Cc1cnc(Nc2cnn(C3CCNCC3)c2)nc1CCc1ccccc1CC(N)=O [Compound 33] | 28 nM
Cc1cnc(Nc2ccc(N3CCNCC3)cc2)nc1CCc1ccccc1CC(N)=O [Compound 2] | 39 nM
Cc1cnc(Nc2ccc(C3CNC3)cc2)nc1CCc1ccccc1CC(N)=O [Compound 32] | 52 nM
CC(N)c1ccc(Nc2ncc(Cl)c(CCc3ccccc3CC(N)=O)n2)cc1 (stereo not drawn) [Compound 37] | 12 nM
NC(=O)Cc1cc(F)ccc1CCc1nc(Nc2ccc(C3CCNCC3)cc2)ncc1C(F)(F)F [Compound 9] | 68 nM
NCc1ccc(Nc2ncc(C(F)(F)F)c(CCc3ccccc3CC(N)=O)n2)cc1 [Compound 3] | 97 nM
NC(=O)Cc1ccccc1CCc1nc(Nc2ccc(CNCCO)cc2)ncc1C(F)(F)F [Compound 19] | 70 nM
Cc1cnc(Nc2ccc(C3CCNCC3)cc2)nc1CCc1ccccc1CC(N)=O [Compound 16] | 22 nM
NC(=O)Cc1ccc(F)cc1CCc1nc(Nc2ccc(C3CCNCC3)cc2)ncc1C(F)(F)F [Compound 15] | 31 nM
Cc1cnc(Nc2ccc(CN)cc2)nc1CCc1ccccc1CC(N)=O [Compound 27] | 118 nM
Cc1cnc(Nc2cccnc2)nc1CCc1ccccc1CC(N)=O [Compound 24] | 34 nM
Cc1cc(Nc2ncc(C(F)(F)F)c(CCc3ccccc3CC(N)=O)n2)ccc1C1CCNCC1 [Compound 11] | 26 nM
NC(=O)Cc1ccccc1CCc1nc(Nc2cnn(C3CCNCC3)c2)ncc1C(F)(F)F [Compound 35] | 23 nM
NC(=O)Cc1cc(C(F)(F)F)ccc1CCc1nc(Nc2ccc(C3CCNCC3)cc2)ncc1C(F)(F)F [Compound 25] | 278 nM
COc1cnc(Nc2ccc(C3CCNCC3)cc2)nc1CCc1ccccc1CC(N)=O [Compound 23] | 72 nM
CC(N)c1ccc(Nc2ncc(C(F)(F)F)c(CCc3ccccc3CC(N)=O)n2)cn1 (stereo not drawn) [Compound 40] | 187 nM
